Tested on: SN12C
ASSAY SUMMARY: GI50 of drug in presence of dasatinib; higher = less potent
CONDITIONS USED: treatment: drug + dasatinib (fixed dose, not stated); 5 days
MEASURED QUANTITY: GI50 of drug (nM)
Numbers only, in nM.

Some entries whose results are on file:
stdin: Please indicate recorded GI50 of drug of CNC(=O)c1c(F)cccc1Nc1nc(Nc2cc3c(cc2OC)CCN3C(=O)CN(C)C)nc2[nH]ccc12 + Cc1nc(Nc2ncc(C(=O)Nc3c(C)cccc3Cl)s2)cc(N2CCN(CCO)CC2)n1 measured with SN12C.
stdout: 1520

stdin: Please indicate recorded GI50 of drug of COCCOc1ccc2c(c1)ncn2-c1ccc2cccc(N3CCC(N)CC3)c2n1 + Cc1nc(Nc2ncc(C(=O)Nc3c(C)cccc3Cl)s2)cc(N2CCN(CCO)CC2)n1 measured with SN12C.
stdout: 1690

stdin: Please indicate recorded GI50 of drug of NC(=O)Nc1cc(-c2cccc(F)c2)sc1C(=O)N[C@H]1CCCNC1 [AZD7762] + Cc1nc(Nc2ncc(C(=O)Nc3c(C)cccc3Cl)s2)cc(N2CCN(CCO)CC2)n1 measured with SN12C.
stdout: 315

API: the following record is the query input.
stdin: Please indicate recorded GI50 of drug of N#CCNC(=O)c1ccc(-c2ccnc(Nc3ccc(N4CCOCC4)cc3)n2)cc1 [Cyt387] + Cc1nc(Nc2ncc(C(=O)Nc3c(C)cccc3Cl)s2)cc(N2CCN(CCO)CC2)n1 measured with SN12C.
stdout: 2910
